Hello, the source for this data is paper PMC4856737, in case you need it.

Assay: in vitro
Conditions: mouse, % of cellular viability, High conc
Reported property: viability (%)
Give bare numbers, in %.

// recorded viability for "O=C(c1ccco1)c1c(C(F)(F)F)[n+]([O-])c2cc(Cl)c(N3CCOCC3)cc2[n+]1[O-]" : 26
